- Assay notes: Lipophilicity, log P of the compound
- Type: physicochemical
- Setup conditions: octanol/water
Each item that follows carries a reported LogP.
Hey, just send me the number, nothing else.

INSERT INTO assay_data (smiles_input, measured_value) VALUES
  ('CCN(CC)CCOc1ccc(C(=O)N2C/C(=C\c3ccc(Cl)cc3)C(=O)/C(=C/c3ccc(Cl)cc3)C2)cc1.Cl', 6.71),
  ('Cl.O=C1/C(=C/c2ccccc2)CN(C(=O)c2ccc(OCCN3CCCCC3)cc2)C/C1=C\c1ccccc1', 5.51),
  ('Cc1ccc(/C=C2\CNC/C(=C\c3ccc(C)cc3)C2=O)cc1', 4.25),
  ('CCN(CC)CCOc1ccc(C(=O)N2C/C(=C\c3ccc([N+](=O)[O-])cc3)C(=O)/C(=C/c3ccc([N+](=O)[O-])cc3)C2)cc1.Cl', 5.27),
  ('Cl.O=C1/C(=C/c2ccc(Cl)cc2)CN(C(=O)c2ccc(OCCN3CCCCC3)cc2)C/C1=C\c1ccc(Cl)cc1', 6.86);

# input Output measured LogP for this item: "O=C1/C(=C/c2ccc([N+](=O)[O-])cc2)CNC/C1=C\c1ccc([N+](=O)[O-])cc1"
# output 3.27

# input Output measured LogP for this item: "CCN(CC)CCOc1ccc(C(=O)N2C/C(=C\c3ccccc3)C(=O)/C(=C/c3ccccc3)C2)cc1.Cl"
# output 5.35

# input Output measured LogP for this item: "O=C1/C(=C/c2ccc(Cl)cc2)CNC/C1=C\c1ccc(Cl)cc1"
# output 4.71

Each recorded value in this set is attributed to ChEMBL document CHEMBL1145596.
